test: Plasma pharmacokinetic parameters (LC-MS/MS); conditions: human, plasma, oral, 60 mg, AUClast, total everolimus plasma; mean
Reported Metric: AUC(0-t) (µM·h)
Numbers only, in µM·h.

Request: Using the record for `CO[C@H]1C[C@@H]2CC[C@@H](C)[C@@](O)(O2)C(=O)C(=O)N2CCCC[C@H]2C(=O)O[C@H]([C@H](C)C[C@@H]2CC[C@@H](OCCO)[C@H](OC)C2)CC(=O)[C@H](C)/C=C(\C)[C@@H](O)[C@@H](OC)C(=O)[C@H](C)C[C@H](C)/C=C/C=C/C=C/1C` , report its AUC(0-t).
Result: 1.88

These entries and their values trace back to paper PMC13070491.
